Experiment: Phase 1 clinical study: plasma pharmacokinetics after ketamine transdermal patch
Conditions: human, plasma, other: transdermal patch, 40 mg, Cmax, Stage 3; Median
In this section, each of the compounds is paired with its reported Cmax.
Kindly provide the numeric value in ng/mL only, without the unit symbol.

Exercise: Name the recorded Cmax for CNC1(c2ccccc2Cl)CCCCC1=O (racemic) .
Key: 9.67

Exercise: Name the recorded Cmax for NC1(c2ccccc2Cl)CCCCC1=O (centres unmarked) .
Key: 10.3

###

Experiment: Phase 1 clinical study: plasma pharmacokinetics after ketamine transdermal patch
Conditions: human, plasma, other: transdermal patch, 40 mg, Tmax, Stage 3; Mean
attribute.measured: Tmax (h)
Kindly provide the numeric value in h only, without the unit symbol.

CNC1(c2ccccc2Cl)CCCCC1=O (racemic)
27

Exercise: Name the recorded Tmax for NC1(c2ccccc2Cl)CCCCC1=O (centres unmarked) .
Key: 31.1
